growth: recorded values
system: SNB-75 CNS; test: NCI-60 one-dose screen, 48 h (100 = growth as untreated, 0 = no growth, -100 = all killed); conditions: 10 µM unless noted
Compounds without any hit were thinned out: in the full panel of roughly 83,000, 20% have a hit.

compound: Cc1nn(-c2ccccc2)c2c1N=c1s/c(=C\c3cn(-c4ccccc4)nc3-c3ccc(Cl)cc3)c(=O)n1C(C)N2 (configuration not stated)
testedTarget: SNB-75 CNS
growth (%): 86.4
--
compound: CN1CCN(Cc2ccc(NC(=O)c3[nH]ncc3Nc3ncnc4sc5c(c34)CCCC5)cc2)CC1
testedTarget: SNB-75 CNS
growth (%): -94.2
--
compound: C=CC(=O)Nc1cc(Nc2nccc(-c3cn(C)c4ccccc34)n2)c(OC)cc1N(C)CCN(C)C
testedTarget: SNB-75 CNS
growth (%): -6.88
--
compound: CO[C@H]1C[C@@H]2CC[C@@H](C)[C@@](O)(O2)C(=O)C(=O)N2CCCC[C@H]2C(=O)O[C@H]([C@H](C)C[C@@H]2CC[C@@H](OC(=O)C(C)(CO)CO)[C@H](OC)C2)CC(=O)[C@H](C)/C=C(\C)[C@@H](O)[C@@H](OC)C(=O)[C@H](C)C[C@H](C)\C=C/C=C/C=C/1C
testedTarget: SNB-75 CNS
growth (%): -0.0597
--
compound: COc1cc2c(cc1O)c(=O)n(CCN(C)C)c1c3cc4c(cc3ncc21)OCO4
testedTarget: SNB-75 CNS
growth (%): -37.2
--
compound: Cc1cn(-c2cc(NC(=O)c3ccc(C)c(Nc4nccc(-c5cccnc5)n4)c3)cc(C(F)(F)F)c2)cn1
testedTarget: SNB-75 CNS
growth (%): 55.7
--
compound: c1ccc2c(c1)CCN(NCCN1CCCC1)C2
testedTarget: SNB-75 CNS
growth (%): 70.9

---

system: UACC-257 melanoma; assay: NCI-60 one-dose screen, 48 h; details: 10 µM unless noted
Compounds without any hit were thinned out: in the full panel of roughly 83,000, 20% have a hit. The source made the active and inactive calls. Rule for the calls: active = growth percent below 10; inactive = the rest.
Outcome codes: active, inactive

molecule: CC(C)(C)c1cnc(CSc2cnc(NC(=O)C3CCNCC3)s2)o1
classAssignment: active

molecule: Cc1cc(Nc2ncnc3ccc(NC4=NC(C)(C)CO4)cc23)ccc1Oc1ccn2ncnc2c1
classAssignment: active

molecule: CO[C@H]1C[C@@H]2CC[C@@H](C)[C@@](O)(O2)C(=O)C(=O)N2CCCC[C@H]2C(=O)O[C@H]([C@H](C)C[C@@H]2CC[C@@H](OC(=O)C(C)(CO)CO)[C@H](OC)C2)CC(=O)[C@H](C)/C=C(\C)[C@@H](O)[C@@H](OC)C(=O)[C@H](C)C[C@H](C)\C=C/C=C/C=C/1C
classAssignment: inactive

molecule: Cn1ccnc1C(=O)/C=C/c1ccc(CC(=O)Nc2ccc(S(F)(F)(F)(F)F)cc2)cc1
classAssignment: inactive

molecule: Cc1cc(Nc2ncc(Cl)c(Nc3ccccc3S(=O)(=O)C(C)C)n2)c(OC(C)C)cc1C1CCNCC1
classAssignment: active

molecule: C=CCn1c(=O)c2cnc(Nc3ccc(N4CCN(C)CC4)cc3)nc2n1-c1cccc(C(C)(C)O)n1
classAssignment: inactive

molecule: N#CC[C@H](C1CCCC1)n1cc(-c2ncnc3[nH]ccc23)cn1
classAssignment: inactive

molecule: CC1=CC2c3oc(-c4ccccc4)c(C(=O)c4ccccc4)c3CNC2C=C1 (stereo unspecified)
classAssignment: inactive

molecule: C[C@H]1Oc2cc(cnc2N)-c2c(nn(C)c2C#N)CN(C)C(=O)c2ccc(F)cc21
classAssignment: inactive

molecule: NC1(c2ccc(-c3nc4ccn5c(=O)[nH]nc5c4cc3-c3ccccc3)cc2)CCC1
classAssignment: active

molecule: Cc1cc([C@@H](C)Nc2ccccc2C(=O)O)c2nc(N3CCOCC3)cc(=O)n2c1
classAssignment: inactive

molecule: CC(=O)c1cnc2ccc(-c3cc(Cl)c(O)c(Cl)c3)nc2c1NC1CCC(CN(C)C)CC1 (stereo unspecified)
classAssignment: active

molecule: COC(=O)[C@H](Cc1ccccc1)NC(=O)[C@@H](OC)[C@@H]1Cc2cc3cc(OC4CC(OC5CC(O)C(O)C(C)O5)C(O)C(C)O4)c(C)c(O)c3c(O)c2C(=O)[C@H]1OC1CC(OC2CC(OC3CC(C)(O)C(O)C(C)O3)C(O)C(C)O2)C(O)C(C)O1 (stereo partly specified)
classAssignment: active

molecule: CC(C)[C@@H]1CC[C@@H]2[C@@H]1[C@H](OC(=O)/C=C/c1ccccc1)[C@]1(C(C)C)C[C@@H](OC(=O)CO)[C@@]2(C)O1
classAssignment: inactive

molecule: COc1cc2nc(Nc3cccc(Cl)c3)nc(N)c2cc1OC
classAssignment: inactive

molecule: CO[C@@H](C(=O)N1Cc2[nH]nc(NC(=O)c3ccc(N4CCN(C)CC4)cc3)c2C1)c1ccccc1
classAssignment: inactive
